Each recorded value in this set is attributed to paper PMC7156458.

Test system: human immunodeficiency virus-1 (HIV-1)
PROCEDURE_TEXT: anti-HIV MAGI assay
Type: cell-based
ASSAY_CONTEXT: anti-HIV; average of numeric determinations; read-out: Avg. EC50
PARAMETER_MEASURED: pEC50
Note on pEC50: it is the negative log10 of concentration, concentration in mol/L.

The recorded pEC50 for entry C=C1CCC2C(C)(CCC=C(C)C)C(O)CCC2(C)C1Cc1c(OC)oc(CO)c(C)c1=O (stereo not shown) equals 7.32

* * *

TARGET_ENTITY: Aβ42 (Homo sapiens)
Sequence (P05067 672-713): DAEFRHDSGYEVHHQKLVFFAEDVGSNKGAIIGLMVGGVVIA
PROCEDURE_TEXT: Th-T (thioflavin-T) assay of Aβ42 aggregation
Assay type: biochemical
ASSAY_CONTEXT: column suffix _20; reading M98
PARAMETER_MEASURED: Fig. 7a Th-T reading, mean of three wells
Form field (numeric): enter value without unit.

For reference, reported Fig. 7a Th-T reading, mean of three wells for C=C1CCC2C(C)(CCC=C(C)C)C(O)CCC2(C)C1Cc1c(OC)oc(C)c(C(=O)OC)c1=O (centres unmarked) [Compound 14] stands at 1.799

C=C1CC[C@@H]2[C@](C)(CC[C@H]3O[C@H](C=C(C)C)C[C@@]23C)[C@@H]1Cc1c(OC)oc(CO)c(C)c1=O [Compound 20] yielded Fig. 7a Th-T reading, mean of three wells of 3.269

Memo: C=C1CC[C@@H]2[C@](C)(CC[C@H]3O[C@H](C=C(C)C)C[C@@]23C)[C@@H]1Cc1c(OC)oc(CO)c(C(=O)OC)c1=O [Compound 21] , reported Fig. 7a Th-T reading, mean of three wells: 0.903

Fig. 7a Th-T reading, mean of three wells recorded for this molecule, C=C1CCC2C(C)(CCC=C(C)C)C(O)CCC2(C)C1Cc1c(OC)oc(CO)c(C)c1=O (centres unmarked) [Compound 12] , is 2.085

// sample C=C1CCC2C(C)(CCC=C(C)C)C(O)CCC2(C)C1Cc1c(OC)oc(CO)c(C(=O)OC)c1=O (centres unmarked) [Compound 13] , its Fig. 7a Th-T reading, mean of three wells was 1.046
